# testSystem: T1, human CD11a (human, UniProt P20701 26-1170)
# T1 construct: whole, on cells; On Jurkat T-cells or human peripheral blood mononuclear cells, as part of LFA-1; also called CD11a on Jurkat cells; alpha subunit of LFA-1
# T1 sequence (P20701 26-1170): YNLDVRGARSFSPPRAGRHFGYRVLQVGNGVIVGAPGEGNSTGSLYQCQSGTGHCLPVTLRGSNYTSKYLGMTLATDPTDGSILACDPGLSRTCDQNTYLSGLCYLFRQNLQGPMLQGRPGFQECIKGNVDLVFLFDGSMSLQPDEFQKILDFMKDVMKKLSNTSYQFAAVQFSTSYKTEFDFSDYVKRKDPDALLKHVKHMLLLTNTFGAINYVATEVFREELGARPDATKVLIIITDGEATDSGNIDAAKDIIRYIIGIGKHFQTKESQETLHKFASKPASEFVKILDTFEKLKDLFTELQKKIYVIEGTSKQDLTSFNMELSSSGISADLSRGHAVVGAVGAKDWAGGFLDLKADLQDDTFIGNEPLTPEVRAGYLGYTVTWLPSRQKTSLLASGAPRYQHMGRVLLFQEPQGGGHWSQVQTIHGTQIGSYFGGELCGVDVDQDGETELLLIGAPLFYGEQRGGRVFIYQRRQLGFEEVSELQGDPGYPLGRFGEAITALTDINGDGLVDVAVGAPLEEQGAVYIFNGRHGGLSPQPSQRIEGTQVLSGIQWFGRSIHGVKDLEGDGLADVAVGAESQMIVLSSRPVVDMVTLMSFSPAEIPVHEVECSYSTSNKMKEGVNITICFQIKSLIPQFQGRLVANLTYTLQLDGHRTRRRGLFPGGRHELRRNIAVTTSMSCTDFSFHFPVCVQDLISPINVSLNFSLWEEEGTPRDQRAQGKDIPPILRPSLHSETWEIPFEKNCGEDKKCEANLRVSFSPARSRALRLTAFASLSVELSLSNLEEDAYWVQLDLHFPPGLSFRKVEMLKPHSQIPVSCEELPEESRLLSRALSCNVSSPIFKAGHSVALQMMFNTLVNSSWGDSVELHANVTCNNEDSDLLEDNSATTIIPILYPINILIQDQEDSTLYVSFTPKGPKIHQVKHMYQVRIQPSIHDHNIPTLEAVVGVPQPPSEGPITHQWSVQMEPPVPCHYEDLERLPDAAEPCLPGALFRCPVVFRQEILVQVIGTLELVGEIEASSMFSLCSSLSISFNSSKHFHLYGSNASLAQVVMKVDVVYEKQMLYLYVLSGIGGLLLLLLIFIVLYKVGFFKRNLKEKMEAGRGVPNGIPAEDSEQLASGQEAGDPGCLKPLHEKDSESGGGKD
# procedureText: FACScan, Jurkat cells
quantityMeasured: Var.EC50/HuIgG1 EC50

Study these solved cases before continuing.
binder	quantityMeasured	dataValue
HuIgG1 mutant SerL50Ala (antibody, V domains shown, HuIgG1 mutant, human IgG1; Kabat numbering) VH: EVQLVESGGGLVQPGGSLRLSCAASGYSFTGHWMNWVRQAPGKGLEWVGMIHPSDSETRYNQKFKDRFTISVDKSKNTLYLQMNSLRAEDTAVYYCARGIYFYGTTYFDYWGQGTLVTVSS VL: DIQMTQSPSSLSASVGDRVTITCRASKTISKYLAWYQQKPGKAPKLLIYAGSTLQSGVPSRFSGSGSGTDFTLTISSLQPEDFATYYCQQHNEYPLTFGQGTKVEIKR	Var.EC50/HuIgG1 EC50	1.2 ratio
HuIgG1 mutant H2 (antibody, V domains shown, HuIgG1 mutant, human IgG1; Kabat numbering) VH: EVQLVESGGGLVQPGGSLRLSCAASGYSFTGHWMNWVRQAPGKGLEWVGMIAPADAETRYNQKFKDRFTISVDKSKNTLYLQMNSLRAEDTAVYYCARGIYFYGTTYFDYWGQGTLVTVSS VL: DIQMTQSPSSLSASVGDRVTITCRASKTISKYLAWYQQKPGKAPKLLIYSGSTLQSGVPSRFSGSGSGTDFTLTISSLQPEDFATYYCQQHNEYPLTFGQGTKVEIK	Var.EC50/HuIgG1 EC50	14.1 ratio

Now for the binder whose Var.EC50/HuIgG1 EC50 we want.
Looking up HuIgG1 mutant ThrH100aAla (antibody, V domains shown, HuIgG1 mutant, human IgG1; Kabat numbering) VH: EVQLVESGGGLVQPGGSLRLSCAASGYSFTGHWMNWVRQAPGKGLEWVGMIHPSDSETRYNQKFKDRFTISVDKSKNTLYLQMNSLRAEDTAVYYCARGIYFYGATYFDYWGQGTLVTVSS VL: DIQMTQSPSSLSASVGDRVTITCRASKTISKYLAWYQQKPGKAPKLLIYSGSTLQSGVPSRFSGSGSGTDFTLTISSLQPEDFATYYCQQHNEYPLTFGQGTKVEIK , I see its Var.EC50/HuIgG1 EC50 listed as 2.3 ratio
